Attribution: ChEMBL document CHEMBL1926635

- tested on: Matrix metalloproteinase-14 (Homo sapiens)
- method: Inhibition of recombinant human MMP14 catalytic domain using Mca-Lys-Pro-Leu-Gly-Leu-Dap(Dnp)-Ala-Arg-NH2 as substrate pre-incubated for 4 hrs before substrate addition measured every 15 secs for 15 mins by fluorimetry
assay endpoint: IC50 (µM)

Take a look at these entries with their results.
- smiles input: "O=C(O)CCCN1C(=O)S/C(=C\\C=C\\c2ccccc2)C1=O"
  IC50, µM: 21
- smiles input: "O=C(O)COc1ccccc1/C=C1/NC(=S)NC1=O"
  IC50, µM: 55
- smiles input: "COc1ccc(-c2cs/c(=N\\c3ccccc3)n2/N=C/c2ccccc2)cc1OC"
  IC50, µM: 150

A: COc1ccc(-c2ccc(/C=C3/SC(=S)N(CC(=O)O)C3=O)o2)cc1
B: O=C(O)c1cccc(-n2cc(-c3cc4ccccc4oc3=O)[nH]c2=S)c1
From the items above, decide which of A and B has the lower IC50 reading. Write down the label attached to your selection.
B

* * *

- tested on: Interstitial collagenase (Homo sapiens)
- Sequence (P03956 whole entry): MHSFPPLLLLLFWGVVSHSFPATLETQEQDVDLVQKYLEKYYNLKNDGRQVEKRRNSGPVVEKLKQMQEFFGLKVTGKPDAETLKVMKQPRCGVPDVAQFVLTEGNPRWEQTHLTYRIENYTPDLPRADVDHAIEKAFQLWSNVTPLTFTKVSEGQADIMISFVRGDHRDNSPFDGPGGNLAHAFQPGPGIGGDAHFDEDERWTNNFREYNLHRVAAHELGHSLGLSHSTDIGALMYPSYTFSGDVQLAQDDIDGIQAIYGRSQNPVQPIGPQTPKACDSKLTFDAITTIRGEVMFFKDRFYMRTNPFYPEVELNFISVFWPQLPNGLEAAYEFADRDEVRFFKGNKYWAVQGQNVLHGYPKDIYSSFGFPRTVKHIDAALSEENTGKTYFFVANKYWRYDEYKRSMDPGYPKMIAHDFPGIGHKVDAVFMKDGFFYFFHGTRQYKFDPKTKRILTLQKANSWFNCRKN
- method: Inhibition of human MMP1 using Mca-Lys-Pro-Leu-Gly-Leu-Dap(Dnp)-Ala-Arg-NH2 as substrate pre-incubated for 4 hrs before substrate addition measured every 15 secs for 15 mins by fluorimetry
pIC50: −log10 of the molar value.
assay endpoint: pIC50

1: COc1ccc(-c2cs/c(=N\c3ccccc3)n2/N=C/c2ccccc2)cc1OC
2: O=C(O)CCCN1C(=O)S/C(=C\C=C\c2ccccc2)C1=O
Please indicate which has the smaller reported pIC50: 1 , or 2 . Give the label of your selection.
1

a: O=C(O)COc1ccccc1/C=C1/NC(=S)NC1=O
b: O=C(O)c1cccc(-n2cc(-c3cc4ccccc4oc3=O)[nH]c2=S)c1
// pick larger pIC50 from pair: a vs b Selection: enter the item's label.
a

* * *

What follows is a collection of IC50 values obtained with Collagenase 3 (Homo sapiens, UniProt P45452).
assay endpoint: IC50 (µM)

- smiles input: "C=CCc1cc(OC)c2oc(=O)c(-c3cn(-c4cccc(C(=O)O)c4)c(=S)[nH]3)cc2c1"
  tested on: "Collagenase 3 (Homo sapiens, UniProt P45452)"
  assay endpoint: "IC50"
  unit abbrev: "µM"
  reading: 4.9

1: COc1ccc(-c2cs/c(=N\c3ccccc3)n2/N=C/c2ccccc2)cc1OC
2: O=C(O)c1cccc(-n2cc(-c3cc4cccc(O)c4oc3=O)[nH]c2=S)c1
3: O=C(O)COc1ccccc1/C=C1/NC(=S)NC1=O
Rank the items in ascending order with respect to IC50. Hello, could you send the labels back in the order asked? Thank you.
2, 3, 1
